Test system: CD2F1 mice, L1210 leukemia ip, survival T/C
PROTOCOL TEXT: NCI In Vivo Anticancer Drug Screen. Data for tumor model L1210 Leukemia (intraperitoneal) in CD2F1 (CDF1) mice
TEST SETTINGS: endpoint: mean survival time; dose: 12.5 mg/kg/injection; schedule: Q04DX003 (ip); vehicle: saline with Tween-80; higher = longer survival
Inconclusive results and toxic doses are left out.
ASSAY ENDPOINT: T/C

Example compounds with recorded T/C:
Query: May I ask what T/C has been recorded for CCC[CH2][Sn]([CH2]CCC)([n]1cncn1)[n]1cncn1 ?
Reply: 105 % of control

Query: Cool, now NC(N)=N/N=C/c1ccc(Cl)c(Cl)c1
Reply: 105 % of control

Query: Cool, now CSC(=S)NN=C(C)C
Reply: 96 % of control

// moving on: another record for T/C
Query: May I ask what T/C has been recorded for Clc1c(Br)nc(Br)nc1C(Cl)(Cl)Cl ?
Reply: 98 % of control

====

Test system: CD2F1 mice, L1210 leukemia ip, survival T/C
PROTOCOL TEXT: NCI In Vivo Anticancer Drug Screen. Data for tumor model L1210 Leukemia (intraperitoneal) in CD2F1 (CDF1) mice
TEST SETTINGS: endpoint: mean survival time; dose: 200.0 mg/kg/injection; schedule: Q01DX009 (ip); vehicle: Klucel (hydroxypropylcellulose) (HPC); higher = longer survival
Protocol: The antitumor activity of compounds was measured in mice bearing transplantable tumors. Survival or tumor size were measured and the results are expressed as the measurement made in the treated group (T) divided by the measurement made in the vehicle treated control group (C). The tumor model used in this assay is L1210 Leukemia (intraperitoneal) in CD2F1 (CDF1) mice
Inconclusive results and toxic doses are left out.
ASSAY ENDPOINT: T/C

Query: So what T/C did Nc1cc(OCC(=O)O)c(Cl)cc1Cl get with CD2F1 mice, L1210 leukemia ip, survival T/C?
Reply: 93 % of control

Further cases:
Query: So what T/C did c1ccc(N/N=C2/CSCc3ccccc32)cc1 get with CD2F1 mice, L1210 leukemia ip, survival T/C?
Reply: 93 % of control

Query: Cool, now C/C(=N/NC(=O)c1ccccc1)c1ccccc1O
Reply: 94 % of control

Query: Cool, now COC(=O)CCN(c1ccccc1)S(=O)(=O)c1ccc(C)cc1
Reply: 100 % of control

Query: Cool, now Cc1ccc(S(=O)(=O)Nc2ccc(Cl)c(Cl)c2)cc1
Reply: 95 % of control

Query: Cool, now C#CCN(C)/N=N/c1nc[nH]c1C(N)=O
Reply: 98 % of control

Query: Cool, now Cc1ccc([N+](=O)[O-])cc1NC(=O)N1CCC(C)CC1
Reply: 101 % of control

====

System: CD2F1 mice, L1210 leukemia ip, survival T/C
PROTOCOL TEXT: NCI In Vivo Anticancer Drug Screen. Data for tumor model L1210 Leukemia (intraperitoneal) in CD2F1 (CDF1) mice
TEST SETTINGS: endpoint: mean survival time; dose: 50.0 mg/kg/injection; schedule: Q01DX009 (ip); vehicle: Klucel (hydroxypropylcellulose) (HPC); higher = longer survival
Toxic doses and inconclusive results are not listed.
Item-by-item account of T/C

Example molecules with recorded T/C:
Query: So what T/C did CCCCC(CC)COCC1CO1 (configuration not stated) get with CD2F1 mice, L1210 leukemia ip, survival T/C?
Reply: 102 % of control

Query: Cool, now CCCCOC(=O)c1ccc(OC(=O)NCCC)cc1
Reply: 102 % of control

Query: Cool, now O=C1C(c2ccccc2)=[N+]([O-])[N+]([O-])=C1c1ccccc1
Reply: 97 % of control

Further cases:
Query: So what T/C did CSc1nnnn1-c1ccccc1 get with CD2F1 mice, L1210 leukemia ip, survival T/C?
Reply: 111 % of control

Query: Cool, now O=[N+]([O-])c1cccc(/C=C/c2ccccn2)c1
Reply: 98 % of control

Query: Cool, now C1=C(CCc2c[nH]c3ccccc23)CCN(CCc2ccccc2)C1
Reply: 103 % of control

Query: Cool, now O=C1OC(=O)c2ccccc21
Reply: 95 % of control
